Just for reference, ChEMBL document CHEMBL4513216 is where these values come from.

// cytotoxicity at 10 µM lookup, one value per entry
- protocolSummary: Toxicity liver stage against HepG2, at 10uM
- Assay type: cell-based
- Design: test concentration 10 uM, cell line HepG2-A16-CD81EGFP
- testConditions: human, HepG2-A16-CD81EGFP cells; read-out: INHIBITION
Provide only the numeric value, understood in %.

Exercise: Tell me the measured cytotoxicity at 10 µM of Cc1nccnc1-n1c(COCC(=O)O)nc2c(C)cccc21 , please.
Solution: -6.29

Exercise: Now consider CCN(C(c1cccnc1)c1ccc(F)c(F)c1)S(C)(=O)=O (stereo unspecified) and answer again.
Solution: -0.69

Exercise: Now this one: CCC1CCCN(S(=O)(=O)c2cnn(C)c2)C1 (stereo unspecified)
Solution: 12.9

Exercise: Try the molecule Cn1ccnc1CN1CCc2ncnc(N3CCCC(C#N)C3)c2CC1 (stereo unspecified)
Solution: -5.1

Exercise: What do we get for O=C(NCc1cncc2c1CCN(Cc1cccc(F)c1)C2)C1CC1 ?
Solution: -8.16

Exercise: Also need CCOc1ccc(C#N)cc1NC(=O)N1CCCC(NC(=O)CC)C1 (stereo unspecified) , thanks.
Solution: 0.711

Exercise: Also need CCN(CC)C(=O)c1ccc(NC(=O)CNc2ccc(F)cc2Cl)cc1 , thanks.
Solution: -5.31

====

A collection of molecules and their measured cytotoxicity at 10 µM
- protocolSummary: Toxicity liver stage against HepG2, at 10uM
- Type: cell-based
- Design: test concentration 10 uM, cell line HepG2-A16-CD81EGFP
- testConditions: human, HepG2-A16-CD81EGFP cells; read-out: INHIBITION
Report the figure in % without appending any unit label.

Look over these answered cases.
>  <molecule>
c1cnc(N2CCC3(CCCN(Cc4ccncc4)C3)CC2)nc1

>  <units>
%

>  <cytotoxicity at 10 µM>
-91.6

$$$$
>  <molecule>
COc1ccc2nnc(CCC(=O)NCc3cccn3C)n2n1

>  <units>
%

>  <cytotoxicity at 10 µM>
-10.1

$$$$

Exercise: Request the reported cytotoxicity at 10 µM associated with Cc1occc1C(=O)N1C[C@@H]2[C@@H](C1)OCC(=O)N2Cc1cccnc1
Solution: 0.661

Exercise: Try the molecule O=S(=O)(c1c(N2CCCCC2)ccc2nonc12)N1CCCCC1
Solution: -3.39

Exercise: Also need Cn1c(Cn2cccn2)nnc1C1CCCN(c2ccncc2)C1 (stereo unspecified) , thanks.
Solution: -14.2

Exercise: Try this molecule too: CCn1c(C2CCN(C(=O)COCC(F)(F)C(F)F)CC2)n[nH]c1=O
Solution: -55

Exercise: Try O=C(c1cn2ccsc2n1)N1CCN(CC2CC2)[C@@H]2CS(=O)(=O)C[C@@H]21 next.
Solution: -2.82

Exercise: Follow-up entry: Cc1ccc(C(=O)N2CCc3c(CNS(C)(=O)=O)cncc3C2)o1
Solution: -11.3

Exercise: // same read-out, input: CC(NC(=O)c1cc(Br)c2c(c1)OCCO2)C(N)=O (stereo unspecified)
Solution: -1.06

Exercise: And for Cn1ccnc1-c1cn(CCCc2csc(N)n2)nn1 ?
Solution: 0.963

Exercise: How about Cc1cc(N2CCCCC2Cn2nc(C)cc2C)n2ncnc2n1 (stereo unspecified) ?
Solution: -1.38

====

- protocolSummary: Toxicity liver stage against HepG2, at 10uM
- Type: cell-based
- Design: test concentration 10 uM, cell line HepG2-A16-CD81EGFP
- testConditions: human, HepG2-A16-CD81EGFP cells; read-out: INHIBITION
parameterMeasured: cytotoxicity at 10 µM (%)
# unit: % | format: bare number

For orientation, consider the following solved cases.
>  <compound>
COC(=O)c1sccc1NC(=O)C1CCCN1C(=O)c1ccco1 (stereo unspecified)

>  <parameterMeasured>
cytotoxicity at 10 µM

>  <resultNumber>
20.3

$$$$
>  <compound>
Cc1ccc(S(=O)(=O)NCCNC(=O)c2ccoc2)cc1C

>  <parameterMeasured>
cytotoxicity at 10 µM

>  <resultNumber>
-3.26

$$$$
>  <compound>
Cc1noc(C)c1-c1cc(CCC2CN(C(=O)CN)CCO2)ncn1 (stereo unspecified)

>  <parameterMeasured>
cytotoxicity at 10 µM

>  <resultNumber>
2.89

$$$$
>  <compound>
CC(=O)N1CCC(CCNC(C)c2cc(F)cc(F)c2)CC1 (stereo unspecified)

>  <parameterMeasured>
cytotoxicity at 10 µM

>  <resultNumber>
-0.988

$$$$
>  <compound>
COCCS(=O)(=O)NCc1ccc(N(C)C)c(C)c1

>  <parameterMeasured>
cytotoxicity at 10 µM

>  <resultNumber>
-8.35

$$$$

Please find the next compound below.
Exercise: Can you look up the measured cytotoxicity at 10 µM of O=C(c1cccc2ccnn12)N1CCCC1Cn1cccn1 (stereo unspecified) for me?
Solution: -126

====

This section presents molecules with their documented cytotoxicity at 10 µM values.
- protocolSummary: Toxicity liver stage against HepG2, at 10uM
- Format: cell-based
- Parameters: test concentration 10 uM, cell line HepG2-A16-CD81EGFP
- testConditions: human, HepG2-A16-CD81EGFP cells; read-out: INHIBITION
# value in %; strip the unit string

Guide cases for cytotoxicity at 10 µM, answers given:
>  <molecule>
COc1ccc(-c2noc(Cn3cc(C)cn3)n2)c(OC)c1OC

>  <cytotoxicity at 10 µM / %>
-8.42

$$$$
>  <molecule>
CC(=O)Nc1nc(C2CCN(C(=O)Cc3ccccc3)CC2)cs1

>  <cytotoxicity at 10 µM / %>
-11.8

$$$$

Exercise: Entry Cn1c(=O)c2sccc2n(Cc2ccccc2)c1=O has what cytotoxicity at 10 µM?
Solution: 4.84

Exercise: And what about the molecule Cc1ccc(OC2(C(=O)O)CCN(C/C=C/c3ccco3)CC2)cn1 ?
Solution: -1.64

Exercise: And for CC(C)Nc1ccc2nc(C3CCNCC3)nn2c1 ?
Solution: -6.75

====

Entries and their measured cytotoxicity at 10 µM follow.
- protocolSummary: Toxicity liver stage against HepG2, at 10uM
- Assay type: cell-based
- Design: test concentration 10 uM, cell line HepG2-A16-CD81EGFP
- testConditions: human, HepG2-A16-CD81EGFP cells; read-out: INHIBITION
The reply should contain only the number, in %.

>  <molecule>
COCC1CN(Cc2ccc(C)o2)Cc2nnn(CC3CC3)c21 (stereo unspecified)

>  <cytotoxicity at 10 µM / %>
-9.96

$$$$
>  <molecule>
CC(Nc1cccc(CN2CCOC2=O)c1)C(=O)Nc1cccc(F)c1 (stereo unspecified)

>  <cytotoxicity at 10 µM / %>
-9.16

$$$$

Exercise: GET /values?readout=cytotoxicity at 10 µM&item= CC(C)(C)C(=O)NS(=O)(=O)c1ccc(C#N)c(C(F)(F)F)c1
Solution: 1.38

Exercise: Likewise for COc1ccc(C[C@H]2CN(Cc3ccoc3)CC[C@H]2OC)cc1 ?
Solution: 8.44

Exercise: Proceed to COCCCn1ccc(NC2CCOCC2)n1
Solution: 3.31

Exercise: Another: Cc1noc(-c2ccc(N3CCCC(C(=O)c4nccn4C)C3)nc2)n1 (stereo unspecified)
Solution: -6.58

Exercise: Would you mind doing O=C(NCc1ccccc1)c1nnc2ccc(N3CCOCC3)cc2n1 as well?
Solution: 11.2

Exercise: Next record, please: CCCc1nc(CNC2(c3nccs3)CCCC2)cs1
Solution: 2.63

Exercise: Now give it for COc1cc(C2CC(=O)Oc3cc(C)[nH]c(=O)c32)ccc1OC(F)F (stereo unspecified) too.
Solution: 7.34

Exercise: Let us now turn to CN1CCC/C1=N\S(=O)(=O)c1ccc(NC(=O)Cc2cccs2)cc1
Solution: -10.6

Exercise: Next record, please: COCCN1CCO[C@@H]2CN(C(=O)c3ccc4[nH]ccc4c3)CC[C@@H]2C1
Solution: -110

====

- protocolSummary: Toxicity liver stage against HepG2, at 10uM
- Assay type: cell-based
- Set-up: test concentration 10 uM, cell line HepG2-A16-CD81EGFP
- testConditions: human, HepG2-A16-CD81EGFP cells; read-out: INHIBITION
Measured cytotoxicity at 10 µM, listed per entry for reference.
Supply the numeric figure in %, leaving out any unit text.

Example entries begin here.
>  <molecule>
COC[C@@H]1CC[C@H]2[C@H](CCN2S(=O)(=O)c2ccc(F)cc2)O1

>  <cytotoxicity at 10 µM / %>
-2.76

$$$$
>  <molecule>
COC(=O)N1CCC(Nc2ccc(C#N)c(Cl)c2)C1 (configuration not stated)

>  <cytotoxicity at 10 µM / %>
-8.21

$$$$
>  <molecule>
COCCNc1ccccc1CNC(=O)NCc1nc(C)c(C)s1

>  <cytotoxicity at 10 µM / %>
5.75

$$$$
>  <molecule>
O=C(CCc1ccc(Cl)s1)N1CCCC(N2CCNC2=O)C1 (configuration not stated)

>  <cytotoxicity at 10 µM / %>
1.09

$$$$

Exercise: Dear colleague, I am looking for the recorded cytotoxicity at 10 µM of the following molecule: Cc1[nH]/c(=N\C(=O)c2csc(NC3CC3)n2)sc1C
Solution: 37.4

Exercise: What do you get for O=C(C1CC(=O)N(C2CCCC2)C1)N1CCN(CCn2cccc2)CC1 (configuration not stated) ?
Solution: 12.8

Exercise: Consider next the molecule COc1ccccc1CN1C[C@@H]2COC[C@]2(COc2cccnc2)C1 in the same way.
Solution: 6.24

Exercise: Another molecule to look at: CCOc1cccc(NS(=O)(=O)c2cc(C(=O)O)cs2)c1
Solution: -4.41

Exercise: Similarly, FC(F)(F)COCCN1CCCC(c2noc(C3CC3)n2)C1 (configuration not stated) ?
Solution: 3.3

Exercise: Do the same for Cc1ccc2c(n1)N(CC1CC1)CCN(Cc1ccco1)C2 please
Solution: 2.75

Exercise: Another molecule: Cc1cc(C)n(CC2CCCN2C(=O)c2ccc3nncn3c2)n1 (configuration not stated)
Solution: 2.01

Exercise: Moving on to CC(C)CNc1nccc(-c2cnc3sc(Cl)cn3c2=O)n1
Solution: -0.723
